# protocolDescription: rat plasma protein binding (PPB) assay
# Format: in vitro ADME
# testConditions: average, read-out: Rat Plasma Protein Binding % Bound Avg (converted)
# key: entry, value: fraction unbound
Keep the answer to the number alone.

>  <compound>
CS(=O)(=O)c1ccc(-c2nc(NCc3ccoc3)ccc2F)cc1 [Compound 48]

>  <fraction unbound>
0.031

$$$$
>  <compound>
CS(=O)(=O)c1ccc(-c2ccc(F)c(NCc3ccco3)n2)cc1 [Compound 15]

>  <fraction unbound>
0.02

$$$$
>  <compound>
CS(=O)(=O)c1ccc(-c2cccc(NCc3ccco3)n2)cc1 [Compound 36]

>  <fraction unbound>
0.087

$$$$

Return reported fraction unbound. Input compound: CS(=O)(=O)c1ccc(-c2cccc(OCc3ccco3)n2)cc1 [Compound 28]
0.025

Return reported fraction unbound. Input compound: CS(=O)(=O)c1ccc(-c2cccc(/C=C\c3ccoc3)n2)cc1 [Compound 35]
0.052

Return reported fraction unbound. Input compound: CS(=O)(=O)c1ccc(-c2ccc(F)c(NCc3ccoc3)n2)cc1 [Compound 33]
0.025

Return reported fraction unbound. Input compound: CS(=O)(=O)c1ccc(-c2cccc(OCc3ccsc3)n2)cc1 [Compound 9]
0.003

----------
# Tested on: MDR1
# protocolDescription: MDR1-MDCKII permeability and efflux
# Assay type: in vitro ADME
# testConditions: dog, MDCK-MDR1; B-A; read-out: MDR1-MCKII Papp B-A
# key: entry, value: Papp B→A
The reply should be a number in ×10⁻⁶ cm/s, with the unit left off.

Jot down Papp B→A (MDR1) of CS(=O)(=O)c1ccc(-c2cccc(NCc3ccco3)n2)cc1 .
67.9

----------
# assayedSystem: ovine COX-1 (oCOX-1) (Ovis aries)
# Construct: purchased Cayman Chemicals (Ann Arbor, Mich.)
# Sequence (P05979 25-600): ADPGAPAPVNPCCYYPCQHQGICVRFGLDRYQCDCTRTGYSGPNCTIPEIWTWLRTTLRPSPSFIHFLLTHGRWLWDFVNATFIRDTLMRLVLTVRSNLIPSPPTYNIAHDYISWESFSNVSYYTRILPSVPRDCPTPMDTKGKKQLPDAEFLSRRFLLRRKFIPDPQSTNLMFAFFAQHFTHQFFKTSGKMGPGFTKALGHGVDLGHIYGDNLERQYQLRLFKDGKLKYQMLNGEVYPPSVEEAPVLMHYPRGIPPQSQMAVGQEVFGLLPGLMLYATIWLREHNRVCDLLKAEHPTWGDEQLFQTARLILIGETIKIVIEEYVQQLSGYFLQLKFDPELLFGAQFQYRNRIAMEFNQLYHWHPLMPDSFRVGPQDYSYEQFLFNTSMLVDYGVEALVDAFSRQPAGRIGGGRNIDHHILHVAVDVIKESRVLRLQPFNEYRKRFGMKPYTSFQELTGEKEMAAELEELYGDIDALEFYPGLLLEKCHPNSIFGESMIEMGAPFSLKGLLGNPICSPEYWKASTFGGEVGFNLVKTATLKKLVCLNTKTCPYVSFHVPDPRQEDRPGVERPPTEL
# protocolDescription: LCMS-based COX-1 enzymatic inhibition assay (PGE2 quantification)
# Type: biochemical
# testConditions: 10 minutes; pge2 area (counts); head of this section not shown, inferred
Answer Not met if COX1 10 minutes pge2 area (counts) Avg. LLE is under 2, and Met if it is 2 or more.

>  <compoundString>
CS(=O)(=O)c1ccc(-n2ccc3ccc(NCc4cccs4)nc32)cc1

>  <classification>
Not met

$$$$
>  <compoundString>
CS(=O)(=O)c1ccc(-c2cccc(NCc3cccs3)n2)cn1

>  <classification>
Not met

$$$$
>  <compoundString>
Cc1ccoc1CNc1cccc(-c2ccc(S(C)(=O)=O)cc2)n1

>  <classification>
Not met

$$$$

Is it the case that CSc1ccc(-c2cncc(NCc3cccs3)n2)cc1 has COX1 10 minutes pge2 area (counts) Avg. LLE reaching or exceeding 2?
Met

Is it the case that CS(=O)(=O)c1ccc(-c2cncc(NCc3ccc(F)cc3)n2)cc1 has COX1 10 minutes pge2 area (counts) Avg. LLE reaching or exceeding 2?
Met

Is it the case that CS(=O)(=O)c1ccc(-n2ccc3ccc(Nc4ccccc4)nc32)cc1 has COX1 10 minutes pge2 area (counts) Avg. LLE reaching or exceeding 2?
Not met

Is it the case that CS(=O)(=O)c1ccc(-c2cncc(NCc3cccs3)n2)cc1 has COX1 10 minutes pge2 area (counts) Avg. LLE reaching or exceeding 2?
Met

Is it the case that COc1ncc(-c2ccc(S(N)(=O)=O)cc2)nc1NCc1cccs1 has COX1 10 minutes pge2 area (counts) Avg. LLE reaching or exceeding 2?
Met

Is it the case that COc1ccc(NCc2ccoc2)nc1-c1ccc(S(C)(=O)=O)cc1 has COX1 10 minutes pge2 area (counts) Avg. LLE reaching or exceeding 2?
Not met

Values from patent US20220348590A1
